Tested on: E. coli TESEC Mtb Asd
test-details: growth (OD600 after 10 h); higher = more growth (less inhibition)
stated-conditions: arabinose induction (level): Low; compound 0.1 mM; raw OD600 reference: median of DMSO wells 0.417, cell-free background 0.041
Each entry below carries its recorded growth.
Answer with the value's number alone.

Example results:
C[C@@H]1NC(=O)NC1=O	0.44
Cc1cc(C2CCCCC2)n(O)c(=O)c1	0.0525
CCCCCN(C)CCC(O)(P(=O)(O)O)P(=O)(O)O [Ibandronate sodium]	0.448
CC1CC(OC(=O)c2ccccc2O)CC(C)(C)C1 (stereo not given) [Homosalate]	0.332

input: Data request, read-out growth, for COC(=O)Nc1nc2ccc(SC(C)C)cc2[nH]1
output: 0.33

Reference source: the supplement of paper PMC9262897
